Target: soluble human BACE1 catalytic domain (Homo sapiens (Human), UniProt P56817)
Sequence (P56817 75-416): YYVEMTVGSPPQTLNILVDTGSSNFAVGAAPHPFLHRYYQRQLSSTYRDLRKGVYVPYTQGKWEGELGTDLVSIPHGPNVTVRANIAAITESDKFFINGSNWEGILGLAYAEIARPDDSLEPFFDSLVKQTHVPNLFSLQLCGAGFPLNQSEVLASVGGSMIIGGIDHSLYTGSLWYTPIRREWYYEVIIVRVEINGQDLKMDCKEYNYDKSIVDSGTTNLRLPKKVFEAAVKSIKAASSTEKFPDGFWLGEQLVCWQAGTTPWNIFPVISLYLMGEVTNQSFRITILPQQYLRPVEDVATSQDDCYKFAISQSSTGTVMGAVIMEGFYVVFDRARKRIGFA
Assay: BACE1 HTRF FRET Assay
Conditions: read-out: BACE1 % Inh. at 10 μM, at 10 μM
Quantity name: inhibition at 10 µM (%)
Provide the reading as a plain figure in %.

Please give measured inhibition at 10 µM of the following entry: CC1(C)C(=N)N[C@](C)(c2cc(NC(=O)C3CCOCC3)cc(F)c2F)CS1(=O)=O
48

Please give measured inhibition at 10 µM of the following entry: CN(C)CC(=O)Nc1cc(F)c(F)c([C@]2(C)CS(=O)(=O)C(C)(C)C(=N)N2)c1
48

Please give measured inhibition at 10 µM of the following entry: COc1cccc2cc(-c3ccc(F)c([C@]4(C)CS(=O)(=O)C(C)(C)C(=N)N4)n3)[nH]c12 [Example 16e]
31

Please give measured inhibition at 10 µM of the following entry: CC1(C)C(=N)N[C@](C)(c2nc(-c3cncc(C#N)c3)ccc2F)CS1(=O)=O [Example 16d]
29

Please give measured inhibition at 10 µM of the following entry: CN(C)CC(=O)Nc1ccc(F)c([C@]2(C)CS(=O)(=O)C(C)(C)C(=N)N2)c1
23

====

# Lookup of reported pKi keyed by entry
Target: soluble human BACE1 catalytic domain (Homo sapiens (Human), UniProt P56817)
Experiment: BACE1 HTRF FRET Assay
Conditions: read-out: BACE1 Ki; Ki calculated from IC50 using the Cheng-Prusoff equation
The read-out pKi is expressed as -log10 of concentration in moles per litre.

Known results for compounds:
CC1(C)C(=N)N[C@](C)(c2sc(C(=O)NCc3ncccn3)cc2Cl)CS1(=O)=O [Example 22b] : 5.45
CC1(C)C(=N)N[C@](C)(c2cc(NC(=O)CC3CC3)cc(F)c2F)CS1(=O)=O : 5.87

Please give measured pKi of the following entry: CC1(C)C(=N)N[C@](C)(c2c(F)c(F)cc(NC(=O)c3ccc(C(F)(F)F)cn3)c2F)CS1(=O)=O
8.10

====

Target: soluble human BACE1 catalytic domain (Homo sapiens (Human), UniProt P56817)
Assay: BACE1 HTRF FRET Assay
Conditions: read-out: BACE1 Ki
Quantity name: Ki (µM)
Provide the reading as a plain figure in µM.

Known results for compounds:
COCCn1cc(-c2cc(Cl)c([C@]3(C)CS(=O)(=O)C(C)(C)C(=N)N3)s2)cn1 [Example 27r] : 0.448
CC1(C)C(=N)N[C@](C)(c2sc(-c3cc4ccccc4s3)cc2Cl)CS1(=O)=O [Example 27f] : 1.18
CC1(C)C(=N)N[C@](C)(c2sc(-c3ccc(C#N)c(C(F)(F)F)c3)cc2Cl)CS1(=O)=O [Example 27t] : 0.291

Now look at this entry.
Please give measured Ki of the following entry: C[C@@]1(c2ccc(F)cc2F)CS(=O)(=O)[C@@](C)(c2cccc(Br)c2)C(=N)N1 [Example 32g-a]
0.381

====

Target: soluble human BACE1 catalytic domain (Homo sapiens (Human), UniProt P56817)
Assay: BACE1 HTRF FRET Assay
Conditions: read-out: BACE1 Ki; Ki calculated from IC50 using the Cheng-Prusoff equation
Quantity name: Ki
Report the figure along with its unit, number first.

Known results for compounds:
COc1cnc(C(=O)Nc2ccc(F)c([C@]3(C)CS(=O)(=O)[C@@](C)(CC4CCOCC4)C(=N)N3)c2)cn1 [Example 9ct-a] : 3.9 nM
CC1(C)C(=N)N[C@](C)(c2sc(C(=O)NCc3cc(Cl)ccn3)cc2Cl)CS1(=O)=O [Example 22u] : 2720 nM

Please give measured Ki of the following entry: COCC(=O)Nc1ccc(F)c([C@]2(C)CS(=O)(=O)C(C)(C)C(=N)N2)c1 [Example 9at]
60 nM

Please give measured Ki of the following entry: C[C@@]1(c2ccccn2)C(=N)N[C@](C)(c2cc(NC(=O)c3ccc(C(F)(F)F)cn3)ccc2F)CS1(=O)=O [Example 9cz-b]
181 nM

Please give measured Ki of the following entry: CC1(C)C(=N)N[C@](C)(c2sc(-c3ccc(F)c(C(F)(F)F)c3)cc2Cl)CS1(=O)=O [Example 27a]
172 nM

Please give measured Ki of the following entry: C[C@@]1(c2cc(NC(=O)c3ccc(F)cn3)ccc2F)CS(=O)(=O)[C@](C)(CC2CC2)C(=N)N1 [Example 9dh-b]
47.4 nM

Please give measured Ki of the following entry: C[C@@]1(c2cc(NC(=O)c3ccc(F)cn3)ccc2F)CS(=O)(=O)[C@@](C)(c2cc(C(F)(F)F)ccn2)C(=N)N1 [Example 9ed-a]
1.6 nM

Please give measured Ki of the following entry: CCC(=O)Nc1cc(F)c(F)c([C@]2(C)CS(=O)(=O)C(C)(C)C(=N)N2)c1 [Example 9be]
429 nM

Please give measured Ki of the following entry: CC1(C)C(=N)N[C@](C)(c2sc(C(=O)NCc3ncccc3Cl)cc2Cl)CS1(=O)=O [Example 22a]
1400 nM

Please give measured Ki of the following entry: CC1(C)C(=N)N[C@](C)(c2cc(NC(=O)C(F)F)cc(F)c2F)CS1(=O)=O [Example 9bd]
233 nM

Please give measured Ki of the following entry: COc1ccc(C(=O)Nc2ccc(F)c([C@]3(C)CS(=O)(=O)[C@](C)(c4cccc(F)c4)C(=N)N3)c2)nc1 [Example 9dc-b]
216 nM

Please give measured Ki of the following entry: C[C@@]1(C2CCC2)C(=N)N[C@](C)(c2cc(NC(=O)c3ccc(F)cn3)ccc2F)CS1(=O)=O [Example 9dv-b]
304 nM

Please give measured Ki of the following entry: C[C@@]1(C2CCC2)C(=N)N[C@](C)(c2cc(NC(=O)c3ccc(Cl)cn3)ccc2F)CS1(=O)=O [Example 9dw-b]
66.3 nM

Please give measured Ki of the following entry: CC1(C)C(=N)N[C@](C)(c2cc(NC(=O)c3cocn3)cc(F)c2F)CS1(=O)=O [Example 9bu]
42 nM

Please give measured Ki of the following entry: CC1(C)C(=N)N[C@](C)(c2sc(C(=O)Nc3cccc(F)n3)cc2Cl)CS1(=O)=O [Example 21]
265 nM

Please give measured Ki of the following entry: C[C@@]1(C2CCC2)C(=N)N[C@](C)(c2cc(NC(=O)c3ccc(C(F)(F)F)cn3)ccc2F)CS1(=O)=O [Example 9dz-b]
123 nM

Please give measured Ki of the following entry: CC(F)(F)C(=O)Nc1cc(F)c(F)c([C@]2(C)CS(=O)(=O)C(C)(C)C(=N)N2)c1 [Example 9bl]
79 nM

====

Biological target: soluble human BACE1 catalytic domain (Homo sapiens (Human), UniProt P56817)
Test: BACE1 HTRF FRET Assay
Settings: read-out: BACE1 Ki; Ki calculated from IC50 using the Cheng-Prusoff equation
# Lookup of reported pKi keyed by entry
The read-out pKi is expressed as -log10 of concentration in moles per litre.

Known results for compounds:
COc1ccc(C(=O)Nc2ccc(F)c([C@]3(C)CS(=O)(=O)[C@](C)(CC4CC4)C(=N)N3)c2)nc1 [Example 9dj-b] : 7.57
CC1(C)C(=N)N[C@](C)(c2sc(-c3cc(F)cc(-c4cnco4)c3)cc2Cl)CS1(=O)=O [Example 27aa] : 7.58
COCC(=O)Nc1cc(F)c(F)c([C@]2(C)CS(=O)(=O)C(C)(C)C(=N)N2)c1 [Example 9bk] : 6.95
COc1cnc(C(=O)Nc2ccc(F)c([C@]3(C)CS(=O)(=O)[C@@](C)(C(C)C)C(=N)N3)c2)cn1 [Example 9ec-a] : 7.83
CC1(C)C(=N)N[C@](C)(c2cc(NC(=O)c3ccc(Cl)cc3)cc(F)c2F)CS1(=O)=O [Example 9bi] : 7.66

Please give measured pKi of the following entry: COc1cnc(C(=O)Nc2ccc(F)c([C@]3(C)CS(=O)(=O)[C@@](C)(c4ccccn4)C(=N)N3)c2)cn1 [Example 9cy-a]
8.16

Please give measured pKi of the following entry: CC1(C)C(=N)N[C@](C)(c2cc(NC(=O)CC3CC3)ccc2F)CS1(=O)=O [Example 9ar]
6.04

Please give measured pKi of the following entry: CC1(C)C(=N)N[C@](C)(c2sc(C(=O)NCc3ccncn3)cc2Cl)CS1(=O)=O [Example 22t]
5.50

Please give measured pKi of the following entry: CC1(C)C(=N)N[C@](C)(c2c(F)c(F)cc(NC(=O)c3ccc(F)cn3)c2F)CS1(=O)=O [Example 9aa]
7.45

Please give measured pKi of the following entry: C[C@@]1(c2cc(NC(=O)c3ccc(F)cn3)ccc2F)CS(=O)(=O)[C@@](C)(c2cc(C(F)(F)F)ccn2)C(=N)N1 [Example 9ed-b]
7.82

Please give measured pKi of the following entry: CC1(C)C(=N)N[C@](C)(c2sc(-c3nnc(-c4ccc(F)cc4)o3)cc2Cl)CS1(=O)=O [Example 27bb]
6.99

Please give measured pKi of the following entry: Cc1ccc(CNC(=O)c2cc(Cl)c([C@]3(C)CS(=O)(=O)C(C)(C)C(=N)N3)s2)nn1 [Example 22e]
6.12

Please give measured pKi of the following entry: CC1(C)C(=N)N[C@](C)(c2cc(NC(=O)c3ccc(F)cn3)cc(F)c2F)CS1(=O)=O [Example 9k]
8.01

Please give measured pKi of the following entry: CC1(C)C(=N)N[C@](C)(c2cc(NC(=O)c3ccc(C(F)(F)F)cn3)ccc2F)CS1(=O)=O [Example 6]
9.15

Please give measured pKi of the following entry: COc1cnc(C(=O)Nc2ccc(F)c([C@]3(C)CS(=O)(=O)[C@](C)(c4cccc(F)c4)C(=N)N3)c2)cn1 [Example 9dd-b]
6.64
